Values compiled from ChEMBL document CHEMBL5576065.

target: UniProtKB Q92743
Sequence (Q92743 whole entry): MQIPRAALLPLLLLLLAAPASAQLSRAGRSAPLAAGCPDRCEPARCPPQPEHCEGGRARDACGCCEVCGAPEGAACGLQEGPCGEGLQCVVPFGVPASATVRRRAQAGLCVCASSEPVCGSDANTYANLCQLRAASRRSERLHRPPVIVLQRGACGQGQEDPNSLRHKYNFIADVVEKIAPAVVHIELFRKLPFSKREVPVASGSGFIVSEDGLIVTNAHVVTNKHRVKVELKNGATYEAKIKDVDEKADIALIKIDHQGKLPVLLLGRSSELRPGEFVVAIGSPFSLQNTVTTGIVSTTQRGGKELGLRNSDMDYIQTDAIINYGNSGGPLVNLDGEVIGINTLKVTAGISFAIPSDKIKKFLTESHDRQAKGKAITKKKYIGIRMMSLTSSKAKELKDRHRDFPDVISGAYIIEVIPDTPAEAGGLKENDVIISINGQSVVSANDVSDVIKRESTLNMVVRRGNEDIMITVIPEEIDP
pIC50: −log10 of the molar value. Square brackets hold non-standard residues; d marks the D form. Peptide text beside a SMILES is read from it. * marks the point of attachment. hMet = CSCCC[C@H](N)C(=O)O; X1 = CC(C)[C@H](N*)B(O)O
Returns one of 1.0 or 0.0; 1.0 when pIC50 is >= 6.

Previously resolved entries follow.
1) CC(C)C[C@H](NC(=O)[C@H](CCCCN)NC(=O)OCc1ccccc1)C(=O)N[C@H](B(O)O)C(C)C
0.0
2) CCCCC[C@H](NC(=O)OCc1ccccc1)C(=O)N[C@@H](CC(C)C)C(=O)N[C@H](B(O)O)C(C)C
0.0
3) CC(C)C[C@H](NC(=O)[C@H](Cc1cccc(Br)c1)NC(=O)OCc1ccccc1)C(=O)N[C@H](B(O)O)C(C)C
1.0
4) Cc1cccc(C[C@H](NC(=O)OCc2ccccc2)C(=O)N[C@@H](CC(C)C)C(=O)N[C@H](B(O)O)C(C)C)c1
1.0
5) CC(C)C[C@H](NC(=O)[C@H](Cc1cccc(F)c1)NC(=O)OCc1ccccc1)C(=O)N[C@H](B(O)O)C(C)C
1.0

Data request: Reported pIC50 reaches at least 6 for "CC(C)C[C@H](NC(=O)[C@H](Cc1cc[n+]([O-])cc1)NC(=O)OCc1ccccc1)C(=O)N[C@H](B(O)O)C(C)C" ?
Data returned: 0.0

Data request: Reported pIC50 reaches at least 6 for CSCCC[C@H](NC(=O)[C@@H]1CCCN1C(=O)[C@@H](N)CC(=O)O)C(=O)N[C@@H](Cc1ccccc1)C(=O)N[C@@H](CCCCN)C(=O)N[C@@H](CC(C)C)C(=O)N[C@H](B(O)O)C(C)C (H-DP[hMet]FKL-X1) ?
Data returned: 0.0
